This collection of values is drawn from ChEMBL document CHEMBL1777807.

assayedTarget: Free fatty acid receptor 1 (Homo sapiens)
procedureDetails: Agonist activity at human GPR40 expressed in CHO cells assessed as intracellular calcium mobilization by FLIPR assay
Type: functional, cell-based
pEC50: −log10 of the molar value.
quantityName: pEC50

These recorded examples may help you get a feel for the data.
Input line: So what pEC50 did `O=C(O)C(Cc1ccc(Oc2ccc(C(F)(F)F)cc2Cl)cc1)C(=O)O` get with Free fatty acid receptor 1 (Homo sapiens)?
Output line: 6.01

Input line: Provide value of pEC50 for this record tested with Free fatty acid receptor 1 (Homo sapiens): CC#CC(CC(=O)O)c1ccc(Oc2ccc(C(F)(F)F)cc2OC(F)F)cc1F (racemic)
Output line: 6.95

Input line: // fetch Free fatty acid receptor 1 (Homo sapiens) pEC50 for CC#CC(CC(=O)O)c1ccc(OC2CCCC2)cc1 (racemic)
Output line: 6.94

[a] CC#CC(c1ccc(Oc2ccc(C(F)(F)F)cc2OC(F)F)cc1)C1OC(=O)NC1=O (racemic)
[b] CC#CC(CC(=O)O)c1ccc(O[C@@H]2CCc3ccccc32)cc1 (mixture of isomers)
Input line: In terms of reported pEC50, does a or b have the smaller number? Mark your answer with the label of the selected entry.
Output line: a
(a: 6.91, b: 7.51)

###

procedureDetails: Cmax in mouse
Type: ADME, organism-based
testSettings: in vivo
quantityName: Cmax (µM)

[I] CC#CC(CC(=O)O)c1ccc(Oc2ccc(C(F)(F)F)cc2OC(F)F)cc1 (racemic)
[II] CC#C[C@@H](c1ccc(Oc2ccc(C(F)(F)F)cc2OC(F)F)cc1)[C@H]1OC(=O)NC1=O (racemic)
Input line: Kindly compare I with II and tell me which has the lower Cmax figure. Mark your answer with the label of the selected entry.
Output line: II

###

assayedTarget: Free fatty acid receptor 1 (Homo sapiens, UniProt O14842)
Sequence (O14842 whole entry): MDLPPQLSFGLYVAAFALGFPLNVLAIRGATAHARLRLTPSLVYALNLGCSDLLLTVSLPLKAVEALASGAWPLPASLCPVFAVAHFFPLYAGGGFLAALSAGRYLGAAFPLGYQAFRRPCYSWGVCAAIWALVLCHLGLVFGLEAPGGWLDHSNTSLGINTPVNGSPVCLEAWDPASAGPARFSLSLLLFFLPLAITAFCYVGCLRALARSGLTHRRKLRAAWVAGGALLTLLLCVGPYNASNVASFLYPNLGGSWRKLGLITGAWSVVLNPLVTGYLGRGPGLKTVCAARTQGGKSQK
procedureDetails: Agonist activity at human GPR40 expressed in HEK293 cells assessed as [3H]IP3 production in presence of 10% human serum
Format: functional, cell-based
pEC50: −log10 of the molar value.
quantityName: pEC50

Input line: Lab request: please report pEC50 under test system Free fatty acid receptor 1 (Homo sapiens, UniProt O14842) for CC#CC(CC(=O)O)c1ccc(Oc2ccc(C#N)cc2Cl)cc1 (racemic)
Output line: 6.28

[I] CC#CC(CC(=O)O)c1ccc(Oc2ccc(C#N)c3ccccc23)cc1 (racemic)
[II] CC#CC(CC(=O)O)c1ccc(Oc2ccc(C(F)(F)F)cc2OC(F)F)cc1 (racemic)
Input line: Among I and II , which shows a numerically higher pEC50 result? # reply format: chosen label
Output line: I
(I: 6.76, II: 6.36)

[A] CC#CC(CC(=O)O)c1ccc(Oc2ncc(C(F)(F)F)cc2Cl)cc1 (racemic)
[B] CC#CC(c1ccc(Oc2ccc(C(F)(F)F)cc2OC(F)F)cc1)C1OC(=O)NC1=O (racemic)
Input line: Which is greater in pEC50, the first item A or the second item B ? Output the label that corresponds to your choice.
Output line: B

###

assayedTarget: Voltage-gated inwardly rectifying potassium channel KCNH2 (Homo sapiens)
Sequence (Q12809 whole entry): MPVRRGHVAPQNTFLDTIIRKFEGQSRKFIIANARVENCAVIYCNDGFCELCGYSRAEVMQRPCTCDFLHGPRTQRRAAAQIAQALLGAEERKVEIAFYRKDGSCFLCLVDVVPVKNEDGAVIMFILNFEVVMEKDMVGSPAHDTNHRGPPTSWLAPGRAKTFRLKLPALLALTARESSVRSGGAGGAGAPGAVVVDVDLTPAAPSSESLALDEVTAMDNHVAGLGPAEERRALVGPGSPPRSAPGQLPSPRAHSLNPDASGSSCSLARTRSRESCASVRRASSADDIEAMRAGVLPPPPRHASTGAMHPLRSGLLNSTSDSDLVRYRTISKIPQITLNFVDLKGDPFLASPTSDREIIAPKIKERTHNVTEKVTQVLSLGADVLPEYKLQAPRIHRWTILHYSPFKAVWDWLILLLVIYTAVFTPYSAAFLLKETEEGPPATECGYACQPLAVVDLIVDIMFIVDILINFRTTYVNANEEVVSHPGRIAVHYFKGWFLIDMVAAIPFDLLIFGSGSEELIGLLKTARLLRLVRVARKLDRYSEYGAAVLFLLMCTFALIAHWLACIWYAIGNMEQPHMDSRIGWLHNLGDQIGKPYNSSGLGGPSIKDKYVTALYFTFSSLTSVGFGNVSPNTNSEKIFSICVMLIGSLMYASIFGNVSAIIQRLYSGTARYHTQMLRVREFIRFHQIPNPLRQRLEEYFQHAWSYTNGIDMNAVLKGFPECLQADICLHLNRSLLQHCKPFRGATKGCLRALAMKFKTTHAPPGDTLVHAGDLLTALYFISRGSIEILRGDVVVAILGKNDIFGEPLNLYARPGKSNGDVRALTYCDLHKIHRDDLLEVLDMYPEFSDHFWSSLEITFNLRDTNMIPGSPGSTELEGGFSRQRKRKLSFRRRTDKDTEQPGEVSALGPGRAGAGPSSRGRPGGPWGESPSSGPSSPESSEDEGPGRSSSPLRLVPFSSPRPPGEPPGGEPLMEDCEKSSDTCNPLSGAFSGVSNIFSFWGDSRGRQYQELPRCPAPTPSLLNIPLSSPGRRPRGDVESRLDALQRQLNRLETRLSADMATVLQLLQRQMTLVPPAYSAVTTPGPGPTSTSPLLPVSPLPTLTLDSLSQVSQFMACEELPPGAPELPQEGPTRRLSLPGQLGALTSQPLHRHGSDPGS
quantityName: pIC50
pIC50 here is simply -log10 of the concentration when that concentration is written in mol/L.

Input line: Fill in the recorded pIC50 for this compound, with Voltage-gated inwardly rectifying potassium channel KCNH2 (Homo sapiens) as test system: CC#CC(CC(=O)O)c1ccc(Oc2ccc(C(F)(F)F)cc2OC(F)F)cc1F (racemic)
Output line: 4.60
